# experimentalProtocol: self-splicing fitness, log relative to wild type (ln ratio); higher = more splicing; Tetrahymena group I intron in knt gene, E. coli kanamycin selection, DiMSum; sequences stand for … in CUCUCU…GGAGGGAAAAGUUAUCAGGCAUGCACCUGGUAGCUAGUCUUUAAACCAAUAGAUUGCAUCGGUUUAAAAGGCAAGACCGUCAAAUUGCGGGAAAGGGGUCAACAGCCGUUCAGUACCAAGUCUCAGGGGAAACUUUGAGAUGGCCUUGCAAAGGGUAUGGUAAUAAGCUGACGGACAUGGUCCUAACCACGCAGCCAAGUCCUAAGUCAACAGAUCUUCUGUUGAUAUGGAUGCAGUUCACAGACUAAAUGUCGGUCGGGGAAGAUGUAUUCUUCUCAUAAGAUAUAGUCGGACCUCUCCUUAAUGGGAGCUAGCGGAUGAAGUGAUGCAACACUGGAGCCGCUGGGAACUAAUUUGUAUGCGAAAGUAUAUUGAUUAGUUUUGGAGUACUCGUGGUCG;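 note: selection with 25 µg/mL kanamycin versus none on LB agar overnight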
# settings: 37 °C
Assign self-splicing fitness (ln) to each entry below.
Respond with the number and no other words.

Enquiry: Can you look up the measured self-splicing fitness (ln) of GACAAGCAAUAUUACGGACC for me?
Return: -0.785

Enquiry: Note, next up: AGUCAGCAAUAUUACGGUAA
Return: -1.19

Enquiry: Note, next up: AAAUAGCAAUAUUACGAGGU
Return: -1.28

Enquiry: Note, next up: CUUCAGCAAUAUUACGAAAU
Return: -2.4

Enquiry: Note, next up: CGGUAGCAAUAUUACGUCCG
Return: -2.02

Enquiry: Note, next up: AGCAAGCAAUAUUACGGAAU
Return: -0.957

Enquiry: Note, next up: UCUCAGCAAUAUUACGGAUC
Return: -1.52

Enquiry: Note, next up: GACCAGCAAUAUUACGAGCA
Return: -0.284

Enquiry: Note, next up: UAAUAGCAAUAUUACGUUAU
Return: -1.44

Enquiry: Note, next up: UAGGAGCAAUAUUACGGCGC
Return: -2.54

Enquiry: Note, next up: GUAGAGCAAUAUUACGUAAC
Return: -0.246

Enquiry: Note, next up: GCCCAGCAAUAUUACGAUUC
Return: -0.274

Enquiry: Note, next up: CCCGAGCAAUAUUACGCAUA
Return: -2.06

Enquiry: Note, next up: CAACAGCAAUAUUACGGUUA
Return: 0.275

Enquiry: Note, next up: CCAGAGCAAUAUUACGUCCA
Return: -1.44

Enquiry: Note, next up: AUGCAGCAAUAUUACGACCG
Return: -1.07

Enquiry: Note, next up: CAUAAGCAAUAUUACGCCGA
Return: -1.71
